# Target: T1, OX40 on OX40 over-expressed cells (UniProt P43489 29-277)
# T1 construct: whole, on cells; human implied; also called OX40 expressed on the surface of OX40 expressing cell
# T1 sequence (looked up): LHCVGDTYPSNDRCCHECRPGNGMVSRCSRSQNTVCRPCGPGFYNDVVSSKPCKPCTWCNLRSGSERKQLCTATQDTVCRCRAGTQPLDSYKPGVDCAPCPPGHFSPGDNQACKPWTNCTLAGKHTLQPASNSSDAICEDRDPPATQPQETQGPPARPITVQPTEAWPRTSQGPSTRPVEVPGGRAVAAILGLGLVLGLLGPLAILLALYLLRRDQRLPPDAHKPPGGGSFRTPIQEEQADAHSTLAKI
# Assay: flow cytometry, supernatant on OX40 over-expressed cells
Parameter: Y586 channel PE fluorescence value

Example entries and their recorded answers appear below.
14D3-7-3 (antibody, V domains shown, hybridoma antibody, tested as culture supernatant) VH: EVQLVESGGGLVKPGGSLRLSCAASGFTFSNAWMSWVRQAPGKGLEWVGRIKRKTDGGTTDYATPVKGRFTISRDASKNTLYLQMNSLKTEDTAVYYCTSAARRGYFDIWGRGTLVTVSS VL: EIVLTQSPGTLSLSPGERATLSCRASQSVSSRYLAWYQQKPGQAPRLLIYGASNRATGMPDRFSGSGSGTDFTLTISRLEPEDFAMYYCQQYGSSPITFGQGTRLEIKR ... 274000
24B9-10 (antibody, V domains shown, hybridoma antibody, tested as culture supernatant) VH: QVQLQESGPGLVKPSGTLSLTCAVSGGSISSSNWWTWVRQPPGKGLEWIGEIYHSGSTNYNPSLKSRVTISVDKSKNQFSLKLSSVTAADTAVYYCARTGPIVTTEYWGQGTLVTVSS VL: EIVLTQSPGTLSLSPGERATLSCRASQSVSSGYLAWYQQKPGQAPRLLIYGASIRATGIPDRFSGSGSGTDFTLTISRLEPEDFALYYCQQYGSSPLTFGGGTKVEIKR ... 313000
24E10-4 (antibody, V domains shown, hybridoma antibody, tested as culture supernatant) VH: QVQMQESGPGLVKPSGTLSLTCAVSGGSISSSKWWSWVRQPPGKGLEWIGEIYHSGSTNYNPSLKSRVTISIDKSKNQFSLRLTSVTAADTAVYYCARGDVLLWFGGQGTLVTVSS VL: EIVLTQSPGTLSLSPGERATLSCWASQSVSSTYLAWYQQKPGQAPRLLIYGASIRATGIPDRFSGSGSGTDFTLTISSLEPEDFAVYYCQQYGSSPITFGQGTRLEIKR ... 344000
15A7-6 (antibody, V domains shown, hybridoma antibody, tested as culture supernatant) VH: QVQLQESGPGLVKPSGTLSLTCAVSGGSINSSSWWSWVRQPPGKGLEWIGEIYHSGDTNYNPSLKSRVAISVDKSKNQFSLKLSSVTAADTAVYYCARDQADYFGSGNYVYWGQGTLVTVSS VL: EIVLMQYPGTLSLSSGERRVLSCRPSQSVSSSYLAWYQQKPGQAPRLLIYGASSRASGIPDRFSGSGSGTDFTLTISRLEPEDFAVYYCQQYGSLPITFGQGTRVEIKR ... 181000
28E3-4 (antibody, V domains shown, hybridoma antibody, tested as culture supernatant) VH: QVQLQESGPGLVKPSGTLSLTCAVSGGSISRSNWWTWVRQSPGKGLEWIGEIYHSGNTNYNPSLKSRVTISLDKSKNQFSLKLSSVTAADTAVYYCASSGSLYMDVWGKGTTVTVSS VL: DIQMTQSPSSLSASVGDRVTISCRASQSTSSYLNWYQQKPGKAPRLLIYGASSLQSGVPSRFSGSGSGTDFILTISSLQPEDFATYYCQQSYSIPITFGQGTRLEIKR ... 195000

Would you kindly look at the next entry?
Quick one: Y586 channel PE fluorescence value of 21F3-11 (antibody, V domains shown, hybridoma antibody, tested as culture supernatant) VH: QVQLQESGPGLVKPSGTLSLTCAVSGGSISSSNWWSWVRQPPGKGLEWIGEIYHGGSTNYNPSLKSRITISVDKSKNQFSLKLSSVTAADTAMYYCATLPGYSSGWFDSWGQGTLVTVSS VL: EIVLMQSPGTLSLSPGERATLSCRASQSVSSSYLAWYQQKPGQAPSLLIYGASNRASGIPDRFSGSGSGTDFTLTITRLEPEDFAVYYCQQYGSSPLTFGGGTRVEIKR ?
171000
